Entry source: ChEMBL document CHEMBL4028844

target: Advanced glycosylation end product-specific receptor (Homo sapiens, UniProt Q15109); test: Binding affinity to human RAGE cytoplasmic domain by tryptophan fluorescence assay
Sequence (Q15109 whole entry, the tested form may be a part): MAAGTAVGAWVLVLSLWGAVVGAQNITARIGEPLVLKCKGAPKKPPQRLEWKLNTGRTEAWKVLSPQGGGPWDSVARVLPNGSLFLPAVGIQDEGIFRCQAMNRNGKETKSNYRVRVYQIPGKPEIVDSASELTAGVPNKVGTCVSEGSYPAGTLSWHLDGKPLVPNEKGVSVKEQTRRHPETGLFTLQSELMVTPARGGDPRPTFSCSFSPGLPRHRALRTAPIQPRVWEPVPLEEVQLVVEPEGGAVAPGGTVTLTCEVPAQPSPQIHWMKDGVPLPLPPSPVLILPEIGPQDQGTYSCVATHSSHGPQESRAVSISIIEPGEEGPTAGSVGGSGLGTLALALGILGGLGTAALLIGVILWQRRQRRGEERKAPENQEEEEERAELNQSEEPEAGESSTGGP
recordedEndpoint: Kd (nM)

COC(=O)c1cc(O)c(O)cc1NC(=O)C1Oc2ccccc2OC1C (centres undefined) | 2
Cc1nc2ccccc2n1CC(O)Cn1c2ccccc2c2ccccc21 (centres undefined) | 1

A. COc1cc(SC)ccc1C(=O)Nc1cccc(C)n1
B. Cc1c(Cl)cccc1NC(=O)CNC(=O)c1ccccc1F
Incoming: Could you determine which record has the numerically smaller Kd? Candidates: A and B Refer to your chosen entry by its label in the reply.
Outgoing: A

----------
biological target: Advanced glycosylation end product-specific receptor (Homo sapiens, UniProt Q15109); experiment: Inhibition of amyloid beta binding to human RAGE […] expressed in HEK293 cells after 10 mins by MST assay; assay type: cell-based
recordedEndpoint: Kd (mM)
Field format: number, assumed mM, no unit text.

// Kd lookup, compound = O=C1CCC[C@@H]2[C@H]3CCCN4CCC[C@@H](CN12)[C@@H]34 , result: 24
